Ref: the NIST ThermoML archive (doi:10.1021/acs.jced.6b00269)

# key: entry, value: log10 viscosity
conditions: 303.15 K; 101.33 kPa; Liquid; Cone and plate viscometry
Scale: log10; quantity: viscosity; unit before log: mPa·s

molecule="CCCCCCCCCCCCCC[P+](CCCCCC)(CCCCCC)CCCCCC.O=[N+]([O-])c1cn[n-]c1 [trihexyl(tetradecyl)phosphonium 4-nitropyrazolide]" observed=2.71
molecule="CCCCCCn1cc[n+](C)c1C.O=[N+]([O-])c1cn[n-]c1 [1-hexyl-2,3-dimethylimidazolium 4-nitropyrazolide]" observed=2.84
molecule=CCCCCC[n+]1ccn(C)c1.O=S(=O)([N-]S(=O)(=O)C(F)(F)F)C(F)(F)F observed=1.74
molecule=CCCC[S+]1CCCC1.O=S(=O)([N-]S(=O)(=O)C(F)(F)F)C(F)(F)F observed=1.86
molecule="CCC[n+]1ccn(C)c1C.O=[N+]([O-])c1cn[n-]c1 [1,2-dimethyl-3-propylimidazolium 4-nitropyrazolide]" observed=2.65

## Input Request the reported log10 viscosity associated with CCCC[S+]1CCCCC1.O=S(=O)([N-]S(=O)(=O)C(F)(F)F)C(F)(F)F [1-butylthianium bis(trifluoromethylsulfonyl)imide]
## Output 1.94

## Input Request the reported log10 viscosity associated with CCCCCCCC[P+](CC)(CC)CC.O=S(=O)([N-]S(=O)(=O)C(F)(F)F)C(F)(F)F [triethyloctylphosphonium bis(trifluoromethylsulfonyl)imide]
## Output 1.94

## Input Request the reported log10 viscosity associated with CC[P+](CC)(CC)COCCOC.O=[N+]([O-])c1cn[n-]c1
## Output 1.84

## Input Request the reported log10 viscosity associated with CC(=O)[O-].CCCCCCn1cc[n+](C)c1 [3-hexyl-1-methylimidazolium acetate]
## Output 2.91

====

details: 278.15 K; 101.33 kPa; Liquid; Cone and plate viscometry
# note: exactly 600 mPa·s is not below, so it is FALSE; use TRUE for viscosity strictly under it

Some solved entries appear below for comparison.
compound=CCCCCCSC(N(C)C)=[N+](C)C.O=S(=O)([N-]S(=O)(=O)C(F)(F)F)C(F)(F)F qualitative_label=TRUE
compound=CCCC[S+]1CCCC1.O=S(=O)([N-]S(=O)(=O)C(F)(F)F)C(F)(F)F qualitative_label=TRUE
compound="CCCCCCCCCCCCCC[P+](CCCCCC)(CCCCCC)CCCCCC.O=[N+]([O-])c1cn[n-]c1 [trihexyl(tetradecyl)phosphonium 4-nitropyrazolide]" qualitative_label=FALSE
compound="CCC=Cn1cc[n+](C)c1C.O=[N+]([O-])c1cn[n-]c1 [1-but-1-enyl-2,3-dimethylimidazolium 4-nitropyrazolide]" qualitative_label=FALSE
compound=CC[P+](CC)(CC)COCCOC.Cc1ncc([N+](=O)[O-])[n-]1 qualitative_label=TRUE

Field: next compound
## Input Is viscosity of CCCCCC[n+]1ccn(C)c1.O=S(=O)([N-]S(=O)(=O)C(F)(F)F)C(F)(F)F strictly below 600 mPa·s?
## Output TRUE

====

conditions: 293.15 K; 101.33 kPa; Liquid; Cone and plate viscometry
# key: entry, value: viscosity
Answer format: numeric, mPa·s implied, no suffix.

Worked cases, viscosity given:
molecule="CCCCCCCC[P+](CC)(CC)CC.O=S(=O)([N-]S(=O)(=O)C(F)(F)F)C(F)(F)F [triethyloctylphosphonium bis(trifluoromethylsulfonyl)imide]" observed=145
molecule="CCCCCCCCCCCCCC[P+](CCCCCC)(CCCCCC)CCCCCC.O=[N+]([O-])c1c[n-]cn1 [trihexyl(tetradecyl)phosphonium 4-nitroimidazolide]" observed=1040
molecule=CCCCCCSC(N(C)C)=[N+](C)C.O=S(=O)([N-]S(=O)(=O)C(F)(F)F)C(F)(F)F observed=109
molecule="CCCCCCC[P+](CC)(CC)CC.O=[N+]([O-])c1cn[n-]c1 [triethylheptylphosphonium 4-nitropyrazolide]" observed=309
molecule="CCCCCCCCCCCCCC[P+](CCCCCC)(CCCCCC)CCCCCC.Cc1ncc([N+](=O)[O-])[n-]1 [trihexyl(tetradecyl)phosphonium 2-methyl-5-nitroimidazolide]" observed=1620

## Input Request the reported viscosity associated with CCCCCCCC[P+](CC)(CC)CC.O=[N+]([O-])c1cn[n-]c1 [triethyloctylphosphonium 4-nitropyrazolide]
## Output 333
